Values from the supplement of paper PMC6555819

Tested on: RXRa DBDmut IVT, anti-RXR (DBD mutation: RXRa K156A/R161A, NR concentration 90 nM)
run_description: PBM binding z-score (relative to random genomic background probes); higher = stronger binding; sequences stand for … in GC…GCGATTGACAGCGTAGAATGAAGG
readout_type: PBM binding z-score
Write the number on its own, no unit after it.

The following sequences have reported results that may help.
ordered_residues | study_system | PBM binding z-score
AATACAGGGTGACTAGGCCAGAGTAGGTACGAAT | RXRa DBDmut IVT, anti-RXR (DBD mutation: RXRa K156A/R161A, NR concentration 90 nM) | -0.419
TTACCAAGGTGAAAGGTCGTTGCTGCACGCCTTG | RXRa DBDmut IVT, anti-RXR (DBD mutation: RXRa K156A/R161A, NR concentration 90 nM) | 0.854

**Q:** Which PBM binding z-score is reported for this sequence? `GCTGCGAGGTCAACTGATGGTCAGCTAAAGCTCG`
**A:** 4.3

**Q:** Which PBM binding z-score is reported for this sequence? `CTATGTGGGTTAAGGGGGTCATTCAGTTTGAAAG`
**A:** 3.34

**Q:** Which PBM binding z-score is reported for this sequence? `TCTAGTAGGTCAAAGGTCACACACTCGAAATGCG`
**A:** 2.77

**Q:** Which PBM binding z-score is reported for this sequence? `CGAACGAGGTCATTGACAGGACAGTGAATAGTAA`
**A:** 4.84

**Q:** Which PBM binding z-score is reported for this sequence? `CAAACTAGGTCACGAGAGGTCAAAGTCGAATGAC`
**A:** 2.82

**Q:** Which PBM binding z-score is reported for this sequence? `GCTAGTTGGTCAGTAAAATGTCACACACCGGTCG`
**A:** 0.121

**Q:** Which PBM binding z-score is reported for this sequence? `CGTCAAAGGTCAAGGTCAGTGAAAGAGACTCGAA`
**A:** 3.45

**Q:** Which PBM binding z-score is reported for this sequence? `CGTCCAAGGTCAGCGGGTCAGTGAAAGCGACGTG`
**A:** 2.67

**Q:** Which PBM binding z-score is reported for this sequence? `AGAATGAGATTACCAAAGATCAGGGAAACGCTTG`
**A:** -0.574

**Q:** Which PBM binding z-score is reported for this sequence? `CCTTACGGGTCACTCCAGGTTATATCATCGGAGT`
**A:** 1.46

====

Tested on: THRa homodimer (NR concentration 90 nM)
run_description: PBM binding z-score (relative to random genomic background probes); higher = stronger binding; sequences stand for … in GC…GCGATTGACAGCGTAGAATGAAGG
Listing of recorded PBM binding z-score by entry.
Write the number on its own, no unit after it.

ordered_residues | PBM binding z-score
TGAATGAGGTTAAATATCAGGGAACGTGGCGTCG | 0.583
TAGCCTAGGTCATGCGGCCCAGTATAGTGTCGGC | 0.868
CGTCCAAGGTCATAGGGGGTCAGTGAAGACAGAT | 4.24

**Q:** Which PBM binding z-score is reported for this sequence? `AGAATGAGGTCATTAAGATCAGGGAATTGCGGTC`
**A:** 3.69

====

Tested on: RXRa DBDmut IVT, anti-RXR (DBD mutation: RXRa K156A/R161A, NR concentration 90 nM)
run_description: PBM binding z-score (relative to random genomic background probes); higher = stronger binding; sequences stand for … in GC…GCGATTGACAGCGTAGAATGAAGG
Listing of recorded PBM binding z-score by entry.
Write the number on its own, no unit after it.

The following sequences have reported results that may help.
ordered_residues | PBM binding z-score
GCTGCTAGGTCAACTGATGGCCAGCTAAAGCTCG | 1.01
CCTACTCGGCCAAAAAGGTCATTGATGCCGATAA | 1.13
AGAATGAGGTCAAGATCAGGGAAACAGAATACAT | 4.15

**Q:** Could you share what PBM binding z-score was measured for `GATACGGGGTCAAGGCCAGAGTACGCGTATTGAT` , tested on RXRa DBDmut IVT, anti-RXR (DBD mutation: RXRa K156A/R161A, NR concentration 90 nM)?
**A:** 4.16

**Q:** Could you share what PBM binding z-score was measured for `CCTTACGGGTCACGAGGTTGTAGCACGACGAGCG` , tested on RXRa DBDmut IVT, anti-RXR (DBD mutation: RXRa K156A/R161A, NR concentration 90 nM)?
**A:** 2.05

**Q:** Could you share what PBM binding z-score was measured for `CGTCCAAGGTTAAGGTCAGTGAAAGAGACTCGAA` , tested on RXRa DBDmut IVT, anti-RXR (DBD mutation: RXRa K156A/R161A, NR concentration 90 nM)?
**A:** 1.71

**Q:** Could you share what PBM binding z-score was measured for `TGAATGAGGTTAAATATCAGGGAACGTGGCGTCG` , tested on RXRa DBDmut IVT, anti-RXR (DBD mutation: RXRa K156A/R161A, NR concentration 90 nM)?
**A:** 1.95

**Q:** Could you share what PBM binding z-score was measured for `CCTACTGGGCCATTCAGAGGTCAATGATCATATG` , tested on RXRa DBDmut IVT, anti-RXR (DBD mutation: RXRa K156A/R161A, NR concentration 90 nM)?
**A:** 0.406

**Q:** Could you share what PBM binding z-score was measured for `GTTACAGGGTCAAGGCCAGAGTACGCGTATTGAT` , tested on RXRa DBDmut IVT, anti-RXR (DBD mutation: RXRa K156A/R161A, NR concentration 90 nM)?
**A:** 2.91

**Q:** Could you share what PBM binding z-score was measured for `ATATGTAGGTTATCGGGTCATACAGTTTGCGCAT` , tested on RXRa DBDmut IVT, anti-RXR (DBD mutation: RXRa K156A/R161A, NR concentration 90 nM)?
**A:** 1.67

**Q:** Could you share what PBM binding z-score was measured for `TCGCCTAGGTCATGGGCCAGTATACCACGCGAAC` , tested on RXRa DBDmut IVT, anti-RXR (DBD mutation: RXRa K156A/R161A, NR concentration 90 nM)?
**A:** 1.21

**Q:** Could you share what PBM binding z-score was measured for `CAAACAAGGTCAAAGGTCAAAGTCGAGCCAACCA` , tested on RXRa DBDmut IVT, anti-RXR (DBD mutation: RXRa K156A/R161A, NR concentration 90 nM)?
**A:** 4.5

**Q:** Could you share what PBM binding z-score was measured for `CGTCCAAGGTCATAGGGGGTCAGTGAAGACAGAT` , tested on RXRa DBDmut IVT, anti-RXR (DBD mutation: RXRa K156A/R161A, NR concentration 90 nM)?
**A:** 4.45
